test: Plasma concentrations and pharmacokinetics after intravenous bolus of C3G (NCA and two-compartment model); type: in vivo, Wistar rats; settings: male, Wistar, rat, plasma, intravenous, 668 nmol, two-compartment model analysis; read-out: C0 (back-extrapolated concentration)
readout name: C0 (nM)

OC[C@H]1O[C@@H](Oc2cc3c(O)cc(O)cc3[o+]c2-c2ccc(O)c(O)c2)[C@H](O)[C@@H](O)[C@@H]1O [C3G, Cyanidin-3-O-β-glucoside]
550

###

experiment: Plasma concentrations and pharmacokinetics after intravenous bolus of C3G (NCA and two-compartment model); type: in vivo, Wistar rats; conditions: male, Wistar, rat, plasma, iv, 668 nmol, two-compartment model analysis; read-out: t1/2e (elimination half-life)
readout name: half-life (min)

OC[C@H]1O[C@@H](Oc2cc3c(O)cc(O)cc3[o+]c2-c2ccc(O)c(O)c2)[C@H](O)[C@@H](O)[C@@H]1O [C3G, Cyanidin-3-O-β-glucoside]
7.41

###

experiment: Plasma concentrations and pharmacokinetics after intravenous bolus of C3G (NCA and two-compartment model); type: in vivo, Wistar rats; conditions: male, Wistar, rat, plasma, iv, 668 nmol, plasma, i.v. 668 nmol C3G; read-out: Half life
readout name: half-life (min)

OC[C@H]1O[C@@H](Oc2cc3c(O)cc(O)cc3[o+]c2-c2ccc(O)c(O)c2)[C@H](O)[C@@H](O)[C@@H]1O [C3G, Cyanidin-3-O-β-glucoside]
6.9
COc1cc(-c2[o+]c3cc(O)cc(O)c3cc2O[C@@H]2O[C@H](CO)[C@@H](O)[C@H](O)[C@H]2O)ccc1O [PN3G, Peonidin-3-O-β-glucoside]
8.16
OC[C@H]1O[C@@H](Oc2cc3c(O)cc(O)cc3[o+]c2-c2ccc(O)cc2)[C@H](O)[C@@H](O)[C@@H]1O [PG3G, Pelargonidin-3-O-β-glucoside]
44.7
COc1cc(-c2[o+]c3cc(O)cc(O)c3cc2O[C@@H]2O[C@H](CO)[C@@H](O)[C@H](O)[C@H]2O)cc(OC)c1O [M3G, Malvidin-3-O-β-glucoside]
5.29

###

experiment: Plasma concentrations and pharmacokinetics after intravenous bolus of C3G (NCA and two-compartment model); format: in vivo, Wistar rats; conditions: male, Wistar, rat, plasma, iv, 668 nmol, non-compartmental analysis; read-out: CL (total body clearance)
readout name: clearance (mL/min)

OC[C@H]1O[C@@H](Oc2cc3c(O)cc(O)cc3[o+]c2-c2ccc(O)c(O)c2)[C@H](O)[C@@H](O)[C@@H]1O [C3G, Cyanidin-3-O-β-glucoside]
490

###

assay: Plasma concentrations and pharmacokinetics after intravenous bolus of C3G (NCA and two-compartment model); format: in vivo, Wistar rats; conditions: male, Wistar, rat, plasma, iv, 668 nmol, two-compartment model analysis; read-out: MRT (converted)
readout name: MRT (min)

OC[C@H]1O[C@@H](Oc2cc3c(O)cc(O)cc3[o+]c2-c2ccc(O)c(O)c2)[C@H](O)[C@@H](O)[C@@H]1O [C3G, Cyanidin-3-O-β-glucoside]
9.22

###

experiment: Plasma concentrations and pharmacokinetics after intravenous bolus of C3G (NCA and two-compartment model); type: in vivo, Wistar rats; conditions: male, Wistar, rat, plasma, iv; 0.25 min after i.v. 668 nmol C3G, mean ± SEM n=4
Measured concentration at 0.25 min values are reported for all entries that follow.
readout name: concentration at 0.25 min (nM)

COc1cc(-c2[o+]c3cc(O)cc(O)c3cc2O[C@@H]2O[C@H](CO)[C@@H](O)[C@H](O)[C@H]2O)ccc1O [PN3G, Peonidin-3-O-β-glucoside]
33.7
OC[C@H]1O[C@@H](Oc2cc3c(O)cc(O)cc3[o+]c2-c2ccc(O)cc2)[C@H](O)[C@@H](O)[C@@H]1O [PG3G, Pelargonidin-3-O-β-glucoside]
4.5
COc1cc(-c2[o+]c3cc(O)cc(O)c3cc2O[C@@H]2O[C@H](CO)[C@@H](O)[C@H](O)[C@H]2O)cc(O)c1O [PT3G, Petunidin-3-O-β-glucoside]
2.2
COc1cc(-c2[o+]c3cc(O)cc(O)c3cc2O[C@@H]2O[C@H](CO)[C@@H](O)[C@H](O)[C@H]2O)cc(OC)c1O [M3G, Malvidin-3-O-β-glucoside]
9.13
OC[C@H]1O[C@@H](Oc2cc3c(O)cc(O)cc3[o+]c2-c2ccc(O)c(O)c2)[C@H](O)[C@@H](O)[C@@H]1O [C3G, Cyanidin-3-O-β-glucoside]
355
